System: LXRa homodimer (NR concentration 270 nM)
measurement protocol: PBM binding z-score (relative to random genomic background probes); higher = stronger binding; sequences stand for … in GC…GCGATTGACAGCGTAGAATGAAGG
Grouping rule (PBM binding z-score): class 0 (below -0.07), class 1 (-0.07 to below 0.4), class 2 (0.4 or more)

                       sequence_entry    class
0  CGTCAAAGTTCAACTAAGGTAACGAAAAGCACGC  class 2
1  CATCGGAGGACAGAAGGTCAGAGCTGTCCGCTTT  class 1
2  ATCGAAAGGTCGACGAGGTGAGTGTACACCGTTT  class 1
3  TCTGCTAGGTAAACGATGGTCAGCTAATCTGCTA  class 0
4  GCTACTAGTTGAAAGGGCAACCGAATGATTCTCG  class 1

In: Hey, which category is AATATAGGGTCATCGTAGGCCAGAGTACGCACAG in, do you know?
Out: class 2

In: Kindly identify the class of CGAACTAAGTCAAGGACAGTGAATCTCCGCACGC .
Out: class 0

In: Any idea which band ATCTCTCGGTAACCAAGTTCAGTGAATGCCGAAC is in?
Out: class 2

In: Consider ATCTCTAGGTAACAAGTTTAGTGAAAGAGAGGAC . To which PBM binding z-score class does it belong?
Out: class 1

In: Looking at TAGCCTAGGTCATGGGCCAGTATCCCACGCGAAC , which class would you pick?
Out: class 1

In: Lab note: sort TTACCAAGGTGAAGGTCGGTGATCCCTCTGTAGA into the matching PBM binding z-score band.
Out: class 0

In: Category lookup for the sequence TCTATTAGTCGAAGGGCAACCGACGAGTCCGTTT
Out: class 1

----------
System: PPARg:RXRa 30nM:10nM, anti-RXR (NR concentration 30 nM, RXRa partner concentration 10 nM)
measurement protocol: PBM binding z-score (relative to random genomic background probes); higher = stronger binding; sequences stand for … in GC…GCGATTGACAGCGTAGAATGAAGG
In this section, each of the sequences is paired with its reported PBM binding z-score.
The answer should be written as a number, with no unit following it.

Previously resolved entries follow.
>>> print(df.to_string())
                       sequence_entry  data_value
0  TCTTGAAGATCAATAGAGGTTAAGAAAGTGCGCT        2.76
1  ATATGTAGGTTATCGGGTCATTAAGTTTGCGCAT        3.81
2  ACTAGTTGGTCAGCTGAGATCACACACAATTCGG       0.202
3  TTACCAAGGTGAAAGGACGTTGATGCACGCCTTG        1.96
4  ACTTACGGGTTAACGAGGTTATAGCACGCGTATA       0.682

In: Given the sequence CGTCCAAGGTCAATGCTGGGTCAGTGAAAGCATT , what is its reported PBM binding z-score?
Out: 1.09

In: Reported PBM binding z-score for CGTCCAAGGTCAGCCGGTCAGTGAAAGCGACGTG : what is it?
Out: 0.459

In: I have this sequence here, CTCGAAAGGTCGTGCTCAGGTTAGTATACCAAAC , and I need its recorded PBM binding z-score.
Out: 0.966

In: Give its PBM binding z-score value. Item: AATACAGGGTCACAAGGCCAGAGTAGGTACGAAT
Out: 3.96

----------
System: THRa homodimer (NR concentration 90 nM)
measurement protocol: PBM binding z-score (relative to random genomic background probes); higher = stronger binding; sequences stand for … in GC…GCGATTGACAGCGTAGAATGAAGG
Classify by PBM binding z-score. Ranges: bucket 1 (below -0.006), bucket 2 (-0.006 to below 1), bucket 3 (1 or more)

Example entries begin here.
>>> print(df.to_string())
                       sequence_entry     class
0  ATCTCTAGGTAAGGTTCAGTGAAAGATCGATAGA  bucket 2
1  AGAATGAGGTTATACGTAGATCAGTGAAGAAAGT  bucket 2
2  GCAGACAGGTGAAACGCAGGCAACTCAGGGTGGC  bucket 1

In: For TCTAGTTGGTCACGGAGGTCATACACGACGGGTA , which PBM binding z-score bin applies?
Out: bucket 3

In: Record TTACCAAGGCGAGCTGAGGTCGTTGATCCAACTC — which class?
Out: bucket 3

In: Just checking, what class would you give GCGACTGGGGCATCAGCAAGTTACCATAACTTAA here?
Out: bucket 1

In: Hi, small favor: classify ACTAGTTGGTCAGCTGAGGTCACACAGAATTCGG by its PBM binding z-score when you get a moment.
Out: bucket 3

In: State the class of the sequence shown: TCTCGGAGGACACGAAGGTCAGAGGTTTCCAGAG
Out: bucket 3

----------
PBM binding z-score by entry:
System: FXR:RXRa (NR concentration 270 nM, RXRa partner concentration 90 nM)
measurement protocol: PBM binding z-score (relative to random genomic background probes); higher = stronger binding; sequences stand for … in GC…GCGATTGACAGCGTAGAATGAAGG

In [3]: df
Out[3]:
                       sequence_entry  data_value
0  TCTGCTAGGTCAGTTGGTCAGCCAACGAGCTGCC       0.772
1  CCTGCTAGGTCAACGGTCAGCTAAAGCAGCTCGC        4.13
2  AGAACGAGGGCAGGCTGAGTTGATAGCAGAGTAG      -0.312
3  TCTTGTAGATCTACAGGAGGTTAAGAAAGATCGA     -0.0507
4  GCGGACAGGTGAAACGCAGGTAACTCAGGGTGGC      -0.363

With those in mind, consider the next sequence.
In: Look up PBM binding z-score for this sequence: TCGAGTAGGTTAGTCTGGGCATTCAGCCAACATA
Out: -0.238

----------
Test system: RXRa homodimer (NR concentration 180 nM)
measurement protocol: PBM binding z-score (relative to random genomic background probes); higher = stronger binding; sequences stand for … in GC…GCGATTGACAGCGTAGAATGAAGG
Returns YES if the recorded PBM binding z-score is greater than or equal to 1, and NO otherwise.

>>> df
                       sequence_entry  class
0  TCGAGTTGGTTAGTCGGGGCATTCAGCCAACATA     NO

In: Has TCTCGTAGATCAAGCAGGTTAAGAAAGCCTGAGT a recorded PBM binding z-score greater than or equal to 1?
Out: NO

In: Is reported PBM binding z-score greater than or equal to 1 here: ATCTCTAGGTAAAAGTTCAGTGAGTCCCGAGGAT
Out: YES

In: Identify whether the reported PBM binding z-score of the following sequence is 1 or greater: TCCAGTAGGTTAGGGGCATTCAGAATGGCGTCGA
Out: YES

In: Given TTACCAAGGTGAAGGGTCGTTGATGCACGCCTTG , state whether its PBM binding z-score is at least 1.
Out: YES

In: Evaluate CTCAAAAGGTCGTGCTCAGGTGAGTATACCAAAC : PBM binding z-score at minimum 1?
Out: YES

----------
Each record here notes measured PBM binding z-score.
System: VDR:RXRa (NR concentration 270 nM, RXRa partner concentration 90 nM)
measurement protocol: PBM binding z-score (relative to random genomic background probes); higher = stronger binding; sequences stand for … in GC…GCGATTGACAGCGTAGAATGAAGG
Please give the numeric answer without any surrounding text.

Guide cases for PBM binding z-score, answers given:
In [3]: df
Out[3]:
                       sequence_entry  data_value
0  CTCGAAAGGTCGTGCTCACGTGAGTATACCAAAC        3.23
1  AGAACGAGGGCACGGTGAGTTGATAGCAGAGTAG        2.56
2  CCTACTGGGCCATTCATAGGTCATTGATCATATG        1.24
3  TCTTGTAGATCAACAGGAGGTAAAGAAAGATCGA       0.194
4  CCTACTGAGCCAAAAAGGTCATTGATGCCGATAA        4.58

In: Entry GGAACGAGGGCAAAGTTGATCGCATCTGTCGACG : reported PBM binding z-score = ?
Out: 1.1

In: PBM binding z-score lookup needed for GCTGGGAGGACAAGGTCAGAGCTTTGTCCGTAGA , thanks.
Out: 1.4

In: Given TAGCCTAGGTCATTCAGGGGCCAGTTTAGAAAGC , state its recorded PBM binding z-score.
Out: 3.16

In: Quick one: PBM binding z-score for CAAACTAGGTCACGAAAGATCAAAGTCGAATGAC ?
Out: 3.03
